So I've got log10(Kd) readings for Ami1 (Mycobacterium tuberculosis, UniProt I6Y4D2), take a look.
Scale: decimal log of Kd, Kd in µM.

O=C(C=Cc1ccccc1)NNc1ccc([N+](=O)[O-])cc1[N+](=O)[O-] [1e, N′-(2,4-Dinitrophenyl)cinnamohydrazide]	1.56
Ic1ccccc1-c1nn[nH]n1 [compound 5]	1.59
O=C(NNc1ccc([N+](=O)[O-])cc1[N+](=O)[O-])C1CC1c1ccccc1 (stereo not shown) [compound 1]	0.83

The reported log10(Kd) of the molecule COc1ccc(C(=O)NNc2ccc([N+](=O)[O-])cc2[N+](=O)[O-])cc1 [1b] was 0.63

The reported log10(Kd) of the molecule O=C(NNc1ccc([N+](=O)[O-])cc1[N+](=O)[O-])c1ccc(Cl)cc1 [1c] was 0.96

The reported log10(Kd) of the molecule O=C(NNc1ccc([N+](=O)[O-])cc1[N+](=O)[O-])c1ccccc1 [1a, N′-(2,4-Dinitrophenyl)benzohydrazide] was 0.43

The reported log10(Kd) of the molecule O=C(NNc1ccc([N+](=O)[O-])cc1[N+](=O)[O-])c1ccc(F)cc1 [1d] was 0.22
